assay: solvent given as SMILES; details: in CS(C)=O
Rule: emission maximum below 600 nm gives 1, anything at or above gives -1.

smiles code	assigned label
O=C1C=CC2=Cc3ccccc3B(O)N12	1
C(=C\c1ncnc2ccccc12)/c1ccc(-c2ccc(N(c3ccccc3)c3ccccc3)cc2)cc1	-1
CCOC(=O)/C(C#N)=C/c1cc2c3ccccc3n(C)c2cc1OC	1
COc1cccc2cc(-c3cc4cccc(OC)c4oc3=O)oc12	1
c1csc(-c2nc3ccccc3c3cc4ccccn4c23)c1	1
CC1=N/C(=C\c2ccc(N(C)C)cc2)C(=O)N1C	1
CCCN1/C(=C/C=C(/C=C/C2=[N+](CCC)c3ccccc3C2(C)C)c2ccc([N+](=O)[O-])cc2)C(C)(C)c2ccccc21	-1
CCN(CC)c1ccc2cc(/C=C/C(=O)/C=C(O)/C=C/c3cc4ccc(N(CC)CC)cc4oc3=O)c(=O)oc2c1	-1
O=C(/C=C/c1cn(-c2ccccc2)nc1-c1ccccc1)c1c(O)c2ccccc2oc1=O	1
N#Cc1coc2ccccc2c1=O	1
C[N+]1=C(/C=C/C=C2/N(CCCS(=O)(=O)[O-])c3ccccc3C2(C)C)C(C)(C)c2ccccc21	1
CCN(CC)c1ccc2c(c1)oc(=O)c1c(=O)oc3cc(Br)ccc3c12	1
O=C1CC(=O)Nc2cc(Br)ccc2N1	1
CC(C)CCCCN1CCc2c1ccc1c3c(ccc21)CCCC3=O	-1

====

assay: solvent given as SMILES; conditions: in ClCCl
Rule: emission maximum below 500 nm gives condition met, anything at or above gives condition not met.

smiles code	assigned label
Cc1cc(O)c(-c2[nH]c(=O)n3c2-c2ccccc2C3=O)cc1Cl	condition met
CN(C)c1ccc(C2=CC3=C(c4ccc([N+](=O)[O-])cc4)[C@H]4c5ccccc5[C@]3(S2)c2ccccc24)cc1	condition not met
CC(C)(C)c1ccc2c(c1)c1ncncc1c1c3ccccc3sc21	condition met
CC1=N/C(=C\c2ccc(N(C)C)cc2)C(=O)N1C	condition met
O=S1(=O)c2ccccc2C2(c3cc(-c4ccc(-n5c6ccccc6c6ccccc65)cc4)ccc3-c3ccc(-c4ccc(-n5c6ccccc6c6ccccc65)cc4)cc32)c2ccccc21	condition met
F[B-]1(F)Oc2c(ccc3c4c(ccc23)C=[N+](c2ccccc2)[B-](F)(F)O4)C=[N+]1c1ccccc1	condition not met

====

assay: solvent given as SMILES; details: in C1CCOC1
emission maximum values, listed per item

compound	emission maximum
CC(C)(C)c1ccc(-c2nc3c4ccc(-c5cc6ccccc6c6ccccc56)cc4c4cc(-c5cc6ccccc6c6ccccc56)ccc4c3n2-c2ccc(C(C)(C)C)cc2)cc1	388 nm
c1ccc(-n2c3c(c4c2-c2ccccc2C42c4ccccc4-c4ccccc42)C2(c4ccccc4-c4ccccc42)c2ccccc2-3)cc1	408 nm
CCOC(=O)/C(C#N)=C/c1cc2c3ccccc3n(C)c2cc1OC	460 nm
O=P(c1ccccc1)(c1ccccc1)n1c2ccccc2c2ccccc21	360 nm
CCC1(CC)c2cc(/C=C/c3ccc(/C=C/c4ccc5c(c4)C(CC)(CC)c4cc(N6c7ccccc7Sc7ccccc76)ccc4-5)cc3)ccc2-c2ccc(N3c4ccccc4Sc4ccccc43)cc21	434 nm
CN(C)CCNCc1c2ccccc2cc2ccccc12	413 nm
O=C(c1ccncc1)c1ccc(-n2c3ccc(-n4c5ccccc5c5ccccc54)cc3c3cc(-n4c5ccccc5c5ccccc54)ccc32)cc1	532.75 nm
c1ccc(-c2nc(-c3ccc(-c4ccc(-n5c6ccccc6c6ccccc65)cc4)cn3)oc2-c2ccccc2)cc1	411 nm
CCCCCCCCCCCCn1c(-c2cc(-c3nc4ccc(C)cc4n3CCCCCCCCCCCC)cc(-c3nc4ccc(C)cc4n3CCCCCCCCCCCC)c2)nc2ccc(C)cc21	375.8 nm
CCCN(c1ccccc1)c1ccc2c(c1)C(CC)(CC)c1cc(/C=C/c3ccc(/C=C(\C#N)C(=O)O)s3)ccc1-2	572 nm
Cc1ccc(-c2cnc3nn4ccccc4c3c2)cc1	418 nm
F[B-]1(F)n2c(c3ccccc3c2-c2ccccc2)C=C2c3ccccc3C(c3ccccc3)=[N+]21	662 nm
c1cc2c([nH]c3c4[nH]c5sccc5c4c4nsnc4c23)s1	511 nm
COc1ccc2c(c1)sc1[n+]2[B-](F)(F)OC(c2ccc(N(C)C)cc2)=N1	466 nm
F[Si](c1ccccc1)(c1c2ccccc2cc2ccccc12)c1c2ccccc2cc2ccccc12	409 nm
CCCCOc1ccc(-c2oc3cc4n(c3c2-c2ccc(OCCCC)cc2)[B-](F)(F)[N+]2=Cc3cc5oc(-c6ccc(OCCCC)cc6)c(-c6ccc(OCCCC)cc6)c5n3[B-](F)(F)[N+]2=C4)cc1	638 nm
CC1(C)CC(/C=C/c2ccc(-n3cccn3)cc2)=CC(=C(C#N)C#N)C1	529 nm
CN(C)c1ccc(/C=C/c2ncnc3ccccc23)cc1	537 nm
COC1=[N+]2C(=C(c3ccc(C)cc3)c3ccc(OC)n3[B-]2(F)F)C=C1	528 nm
COc1ccc(/C=C/c2cc(/C=C/c3ccc(OC)cc3)nc(/C=C/c3ccc4cc(OC)ccc4c3)n2)cc1	433 nm
O=C1NC(=O)c2c1c1c3ccccc3[nH]c1c1[nH]c3ccccc3c21	475 nm
C=CC1CN2CCC1CC2[C@@H](OCc1ccccc1)c1ccnc2ccc(O)cc12 (some centres undefined)	358 nm
c1ccc(-p2c(-c3cccs3)cc3ccccc32)cc1 (centres undefined)	417 nm
F[B-]1(F)n2cccc2C=C2c3ccccc3C(c3ccc[nH]3)=[N+]21	596 nm

====

emission maximum values, listed per item
assay: solvent given as SMILES; conditions: in CN(C)C=O

smiles code	emission maximum
CCCCCCCCCCCCCCCCCCN1C(=O)c2ccc3c4ccc5c6c(ccc(c7ccc(c2c37)C1=O)c64)C(=O)N(CCCCCCCCCCCCCCCCCC)C5=O	535 nm
COc1ccc(-c2csc(/C(C#N)=C/c3ccc(C#N)cc3)n2)cc1	570 nm
N#Cc1coc2ccccc2c1=O	494 nm
Cc1ccc(Nc2ccc(Nc3ccc(C)cc3)c3c2C(=O)c2ccccc2C3=O)cc1	686 nm
CN(C)CCN(Cc1c2ccccc2cc2ccccc12)c1ccc([N+](=O)[O-])cc1[N+](=O)[O-]	396 nm
c1ccc2[nH]c(-c3ccc(-c4ccc(-c5ccc(-c6nc7ccccc7[nH]6)cc5)cc4)cc3)nc2c1	409 nm
Cc1ccc2[nH]c(-c3ccc(-c4ccc(-c5ccc(-c6nc7cc(C)ccc7[nH]6)cc5)c(C)c4)cc3)nc2c1	408 nm
CCCCCCN(c1ccccc1)c1ccc2c(c1)C(CC)(CC)c1cc(/C=C/c3ccc(/C=C(\C#N)C(=O)O)s3)ccc1-2	605 nm
COc1ccc(-c2csc(/C(C#N)=C\Nc3ccc(C#N)cc3)n2)cc1	453 nm

====

experiment: solvent given as SMILES; conditions: in CS(C)=O

smiles code	unit label	emission maximum
CN(C)c1ccc(/C=C/c2ncnc3ccccc23)cc1	nm	585
C(=C\c1ccncn1)/c1ccc(-c2ccc(N(c3ccccc3)c3ccccc3)cc2)cc1	nm	609
CC1(C)C(/C=C/c2cc3ccc(O)cc3oc2=O)=[N+](CCCS(=O)(=O)[O-])c2ccc(S(=O)(=O)O)cc21	nm	604

====

assay: solvent given as SMILES; details: in CCOC(C)=O

smiles code	unit label	emission maximum
Cc1ccc(C2=C3C=CC(C#Cc4ccccc4)=[N+]3[B-](F)(F)n3c(Cl)ccc32)cc1	nm	571
CCC1(CC)c2ccccc2-c2ccc(C#Cc3ccc4ccc5cccc6ccc3c4c56)cc21	nm	406
Cc1ccc(-n2c3ccccc3c3cc(C(=C(C#N)C#N)c4ccccc4)ccc32)cc1	nm	540
CCCCCCCCC1(CCCCCCCC)c2cc(C#CC#Cc3ccc(N(c4ccccc4)c4ccccc4)cc3)ccc2-c2ccc(C=O)cc21	nm	500
CCc1ccc(/C=N/c2cc(C(C)C)c(O)cc2C)cc1	nm	412
CN(C)/C=N\c1ccc2c3c(cccc13)C(=O)c1ccccc1-2	nm	586
c1ccc(-c2nc(-c3ccc(-c4ccc(-n5c6ccccc6c6ccccc65)cc4)cn3)oc2-c2ccccc2)cc1	nm	408
CCCSc1ccc2n1[B-](F)(F)[N+]1=C(SC#N)C=CC1=C2c1ccccc1	nm	567
COc1cc(Br)cc2cc(-c3cc4cc(Br)cc(OC)c4oc3=O)oc12	nm	434

====

emission maximum values, listed per item
assay: solvent given as SMILES; details: in Cc1ccccc1

smiles code	emission maximum, nm
CC(=O)c1c2c(cc3ccc(N(C)C)cc13)CCC2	490
CC1=CC(c2ccc(N(C)C)cc2)=[N+]2C1=Nc1c(C)cc(-c3ccc(N(C)C)cc3)n1[B-]2(F)F	779
CCCCCCCCc1ccc(-n2c3c(c4c2c2c(n4-c4ccc(CCCCCCCC)cc4)-c4ccccc4NB2c2ccccc2)B(c2ccccc2)Nc2ccccc2-3)cc1	400
CCN(CC)c1ccc2cc(/C=C/C(=O)/C=C(O)/C=C/c3cc4ccc(N(CC)CC)cc4oc3=O)c(=O)oc2c1	542

====

test: solvent given as SMILES; settings: in ClCCl
Rule: emission maximum below 500 nm gives condition met, anything at or above gives condition not met.

smiles code	assigned label
COc1ccc2cc(/C=C/C3=C4CCc5ccccc5C4=[O+][B-](F)(F)O3)ccc2c1	condition not met
Cc1ccc2c(c1)C(C)(C)c1cc(C)ccc1N2c1ccc2c(c1)C(C)(C)c1cc(N3c4ccc(C)cc4C(C)(C)c4cc(C)ccc43)ccc1S2(=O)=O	condition not met
c1ccc(-c2cc(-c3ccc(N(c4ccccc4)c4ccccc4)cc3)cc(-c3ccccc3)n2)cc1	condition met
Fc1ccccc1-c1c2cc(Cl)ccc2nc2cc3ccccc3cc12	condition not met
O=C1c2cccc3cc(C#CC#Cc4cc5c6c(cccc6c4)C(=O)N(c4ccccc4)C5=O)cc(c23)C(=O)N1c1ccccc1	condition met
F[B-]1(F)n2c(cc3c4ccccc4c4ccccc4c32)-c2ccc3ccccc3[n+]21	condition not met
